SYSTEM: EHMT1 (Homo sapiens)
Sequence (Q9H9B1 whole entry, species assumed): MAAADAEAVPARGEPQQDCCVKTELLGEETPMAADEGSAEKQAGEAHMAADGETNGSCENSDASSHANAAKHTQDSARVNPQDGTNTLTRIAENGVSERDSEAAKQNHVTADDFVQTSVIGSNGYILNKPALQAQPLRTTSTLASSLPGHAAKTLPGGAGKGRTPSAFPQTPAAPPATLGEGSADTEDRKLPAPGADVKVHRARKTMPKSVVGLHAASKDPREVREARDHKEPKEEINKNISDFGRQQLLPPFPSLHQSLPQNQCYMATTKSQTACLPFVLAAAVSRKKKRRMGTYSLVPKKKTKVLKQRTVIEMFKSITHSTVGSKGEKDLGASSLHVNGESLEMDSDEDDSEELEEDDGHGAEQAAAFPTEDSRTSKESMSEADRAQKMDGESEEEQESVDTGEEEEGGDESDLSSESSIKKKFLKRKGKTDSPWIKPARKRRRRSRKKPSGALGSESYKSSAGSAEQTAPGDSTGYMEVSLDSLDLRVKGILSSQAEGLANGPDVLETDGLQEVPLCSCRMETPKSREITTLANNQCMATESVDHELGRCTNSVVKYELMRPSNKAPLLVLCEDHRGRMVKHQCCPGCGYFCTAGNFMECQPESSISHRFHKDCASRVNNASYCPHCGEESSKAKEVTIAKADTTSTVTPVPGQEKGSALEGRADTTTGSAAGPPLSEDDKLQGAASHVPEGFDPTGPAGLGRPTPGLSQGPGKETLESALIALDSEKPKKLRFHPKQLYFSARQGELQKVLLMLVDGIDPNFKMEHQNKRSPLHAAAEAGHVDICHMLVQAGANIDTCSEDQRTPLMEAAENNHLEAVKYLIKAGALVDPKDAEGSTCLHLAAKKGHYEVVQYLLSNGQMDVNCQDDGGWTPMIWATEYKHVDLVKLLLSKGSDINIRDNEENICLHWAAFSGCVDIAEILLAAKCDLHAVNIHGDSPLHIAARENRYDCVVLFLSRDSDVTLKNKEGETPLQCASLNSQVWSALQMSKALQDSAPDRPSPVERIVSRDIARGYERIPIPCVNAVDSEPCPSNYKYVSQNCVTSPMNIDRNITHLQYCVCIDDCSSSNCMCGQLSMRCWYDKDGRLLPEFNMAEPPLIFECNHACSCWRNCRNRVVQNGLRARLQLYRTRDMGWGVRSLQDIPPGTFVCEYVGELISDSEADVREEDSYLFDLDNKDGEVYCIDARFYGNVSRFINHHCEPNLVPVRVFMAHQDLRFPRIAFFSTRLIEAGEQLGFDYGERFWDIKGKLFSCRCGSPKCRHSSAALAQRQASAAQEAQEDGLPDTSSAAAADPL
PROCEDURE TEXT: EHMT1 enzyme assay on peptide substrate (EHMT1 PEP)
Type: biochemical
DETAILS: Table VII; read-out: EHMT1 PEP IC50
QUANTITY: IC50

- CCN1CCC(O)(COc2cc(Nc3nccc(NC)n3)ccc2OC)C1 (centres unmarked): > 10000 nM
- CNc1ccnc(Nc2ccc(OC)c(OC[C@H](CN3CCCC3)OC)c2)n1: 1000 to 10000 nM
- CNc1cc(C)nc(Nc2ccc(OC)c(OC[C@H](O)CNC3CCC3)c2)n1: 100 to 1000 nM
- CNc1ccnc(Nc2ccc(OC)c(OC[C@@H]3CN(C)CCO3)c2)n1: > 10000 nM
- CCN1CC[C@@H](COc2cc(Nc3nccc(NC)n3)ccc2OC)C1: < 100 nM
